tested on: Kaolin-induziertes Pfotenoedem; assay: Kaolin-induced rat paw oedema after dermal administration; type: in vivo, Ratte; conditions: 6 h after kaolin injection, 10 mg/kg standard acid, esters 12.3-13.2 mg/kg equivalent to 10 mg/kg acid, applied 30 min before and 150 min after kaolin
Marks after values point to notes of the source that are not given here.
# Lookup of reported % Hemmung 6h keyed by entry

# COMPOUND, % Hemmung 6h
records = [
    ("CC(C)(CO)COC(=O)c1ccccc1Nc1cccc(C(F)(F)F)c1", "36.8*** %"),
    ("O=C(O)c1ccccc1Nc1cccc(C(F)(F)F)c1 [Flufenaminsäure, N-(α,α,α-Trifluor-m-tolyl)anthranilsäure, reference compound]", "23.2** %"),
    ("O=C(O)Cc1ccccc1Nc1c(Cl)cccc1Cl [Diclofenac, reference compound]", "37.6*** %"),
    ("O=C(O)Cc1cn(-c2ccccc2)nc1-c1ccc(Cl)cc1 [Lonazolac, reference compound]", "30.0*** %"),
    ("CC(C)(C)COC(=O)Cc1cn(-c2ccccc2)nc1-c1ccc(Cl)cc1", "34.3*** %"),
    ("CC(C)(C)COC(=O)Cc1ccccc1Nc1c(Cl)cccc1Cl", "43.2*** %"),
]
